TARGET OF ASSAY: Human Factor XIIa (Homo sapiens, UniProt P00748)
Construct: purchased Enzyme Research Laboratories
Sequence (P00748 373-615 limits assumed): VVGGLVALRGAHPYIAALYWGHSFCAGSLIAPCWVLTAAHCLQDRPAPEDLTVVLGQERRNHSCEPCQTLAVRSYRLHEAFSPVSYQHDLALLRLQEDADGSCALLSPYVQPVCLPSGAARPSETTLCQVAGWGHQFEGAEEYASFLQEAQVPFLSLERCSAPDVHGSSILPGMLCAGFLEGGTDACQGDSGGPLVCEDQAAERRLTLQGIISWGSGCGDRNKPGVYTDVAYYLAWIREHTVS
EXPERIMENTAL DETAILS: Factor XIIa inhibitory activity in vitro (fluorogenic substrate H-DPro-Phe-Arg-AFC)
Format: biochemical
DETAILS: 25° C., class symbols, read-out: Human FXIIa IC50
Reported values of IC50 for individual entries

{"SMILES STR": "C[C@@H]1CCC[C@H](C)N1[C@H](C)C(=O)N[C@@H](Cc1ccc(F)c(F)c1)C(=O)NCc1ccc2c(N)nccc2c1", "IC50": "0.28 to 1 µM"}
{"SMILES STR": "Nc1nccc2cc(CNC(=O)[C@@H](N)Cc3cccc(F)c3)ccc12", "IC50": "10 to 40 µM"}
{"SMILES STR": "COc1cc(C(=O)N[C@@H](Cc2ccc(F)c(F)c2)C(=O)NCc2ccc3c(N)nccc3c2)ccc1F", "IC50": "3 to 10 µM"}
{"SMILES STR": "N[C@H](CCCCN1CCN(c2ncccn2)CC1)C(=O)N1CC[C@H]1C(=O)NCc1ccc2[nH]cc(Cl)c2c1", "IC50": "3 to 10 µM"}

###

Reported values of pIC50 for individual entries
TARGET OF ASSAY: Human Factor XIIa (Homo sapiens, UniProt P00748)
Construct: purchased Enzyme Research Laboratories
EXPERIMENTAL DETAILS: Factor XIIa inhibitory activity in vitro (fluorogenic substrate H-DPro-Phe-Arg-AFC)
Format: biochemical
DETAILS: 25° C., class symbols, read-out: Human FXIIa IC50
pIC50: −log10 of the molar value.
VALUE KIND: pIC50

{"COMPOUND": "C[C@H](NC(=O)[C@H](N)COCc1ccccc1)C(=O)NCc1ccc2c(N)nccc2c1", "VALUE KIND": "pIC50", "RESULT": "4.40 to 5.00"}
{"COMPOUND": "Nc1nccc2cc(CNC(=O)[C@H](Cc3ccc(F)c(F)c3)NC(=O)c3cccnc3N3CCOCC3)ccc12", "VALUE KIND": "pIC50", "RESULT": "4.40 to 5.00"}
{"COMPOUND": "COc1ccc(CNC(=O)[C@H](C)NC(=O)[C@@H](CCc2ccccc2)NC(C)C)cc1Cl", "VALUE KIND": "pIC50", "RESULT": "4.40 to 5.00"}
{"COMPOUND": "CC(OCc1ccccc1)[C@H](NC(=O)CN1[C@H](C)CCC[C@@H]1C)C(=O)NCc1ccc2c(N)nccc2c1 (stereo partly drawn)", "VALUE KIND": "pIC50", "RESULT": "5.00 to 5.52"}
{"COMPOUND": "CC(C)N[C@H](CCCCN1CCCCC1)C(=O)N1CC[C@H]1C(=O)NCc1ccc2[nH]cc(Cl)c2c1", "VALUE KIND": "pIC50", "RESULT": "7.00 to 7.52"}
{"COMPOUND": "CC(C)N[C@H](CCCCN1CCCCC1)C(=O)N[C@@H](Cc1ccc2ccccc2c1)C(=O)NCc1ccc2c(N)nccc2c1", "VALUE KIND": "pIC50", "RESULT": "5.52 to 6.00"}
{"COMPOUND": "Nc1nccc2cc(CNC(=O)CNC(=O)c3ccc(-c4ccncc4)cc3)ccc12", "VALUE KIND": "pIC50", "RESULT": "4.40 to 5.00"}
{"COMPOUND": "CS(=O)(=O)c1cccc(C(=O)N[C@@H](Cc2ccc(F)c(F)c2)C(=O)NCc2ccc3c(N)nccc3c2)c1", "VALUE KIND": "pIC50", "RESULT": "5.00 to 5.52"}
{"COMPOUND": "CC(C)c1ccnc(C(=O)N[C@@H](Cc2ccc(F)c(F)c2)C(=O)NCc2ccc3c(N)nccc3c2)n1", "VALUE KIND": "pIC50", "RESULT": "4.40 to 5.00"}
{"COMPOUND": "C[C@@H]1CCC[C@H](C)N1CC(=O)NC1(C(=O)NCc2ccc3c(N)nccc3c2)CC1", "VALUE KIND": "pIC50", "RESULT": "5.00 to 5.52"}
{"COMPOUND": "Nc1nccc2cc(CNC(=O)[C@H](Cc3ccc(F)c(F)c3)NC(=O)c3ccncc3)ccc12", "VALUE KIND": "pIC50", "RESULT": "4.40 to 5.00"}
{"COMPOUND": "Nc1nccc2cc(CNC(=O)CNC(=O)c3ccc(N4CCOCC4)cc3)ccc12", "VALUE KIND": "pIC50", "RESULT": "4.40 to 5.00"}
{"COMPOUND": "Nc1nccc2cc(CNC(=O)[C@H](Cc3ccc(F)c(F)c3)NC(=O)c3cccs3)ccc12", "VALUE KIND": "pIC50", "RESULT": "4.40 to 5.00"}
{"COMPOUND": "Nc1nccc2cc(CNC(=O)[C@H](Cc3ccc(F)c(F)c3)NC(=O)Cc3nc(-c4cccnc4)n[nH]3)ccc12", "VALUE KIND": "pIC50", "RESULT": "4.40 to 5.00"}
{"COMPOUND": "Nc1nccc2cc(CNC(=O)[C@H](Cc3ccc(F)c(F)c3)NC(=O)COCc3ccccc3)ccc12", "VALUE KIND": "pIC50", "RESULT": "4.40 to 5.00"}

###

TARGET OF ASSAY: Human Factor XIIa (Homo sapiens, UniProt P00748)
Construct: purchased Enzyme Research Laboratories
EXPERIMENTAL DETAILS: Factor XIIa inhibitory activity in vitro (fluorogenic substrate H-DPro-Phe-Arg-AFC)
Type: biochemical
DETAILS: 25° C., class symbols, read-out: Human FXIIa IC50
pIC50: −log10 of the molar value.
Reported values of pIC50 for individual entries

{"COMPOUND": "Cc1ccnn1CCC(=O)N[C@@H](Cc1ccc(F)c(F)c1)C(=O)NCc1ccc2c(N)nccc2c1", "TARGET OF ASSAY": "Human Factor XIIa (Homo sapiens, UniProt P00748)", "pIC50": "4.40 to 5.00"}
{"COMPOUND": "Nc1nccc2cc(CNC(=O)[C@H](Cc3ccc(F)c(F)c3)NC(=O)c3ncccn3)ccc12", "TARGET OF ASSAY": "Human Factor XIIa (Homo sapiens, UniProt P00748)", "pIC50": "4.40 to 5.00"}
{"COMPOUND": "Nc1nccc2cc(CNC(=O)CNC(=O)[C@H](N)CCc3ccccc3)ccc12", "TARGET OF ASSAY": "Human Factor XIIa (Homo sapiens, UniProt P00748)", "pIC50": "6.00 to 6.55"}
{"COMPOUND": "C[C@@H]1CCC[C@H](C)N1CC(=O)N[C@@H](Cc1ccc(F)c(F)c1)C(=O)NC1CCN(c2ccncc2)CC1", "TARGET OF ASSAY": "Human Factor XIIa (Homo sapiens, UniProt P00748)", "pIC50": "5.00 to 5.52"}
{"COMPOUND": "N[C@H](CCCCN1CCc2ccccc2C1)C(=O)N1CC[C@H]1C(=O)NCc1ccc2[nH]cc(Cl)c2c1", "TARGET OF ASSAY": "Human Factor XIIa (Homo sapiens, UniProt P00748)", "pIC50": "5.52 to 6.00"}
{"COMPOUND": "N#Cc1ccc(C(=O)N[C@@H](Cc2ccc(F)c(F)c2)C(=O)NCc2ccc3c(N)nccc3c2)nc1", "TARGET OF ASSAY": "Human Factor XIIa (Homo sapiens, UniProt P00748)", "pIC50": "4.40 to 5.00"}
{"COMPOUND": "Cc1nc2ccccn2c1C(=O)N[C@@H](Cc1ccc(F)c(F)c1)C(=O)NCc1ccc2c(N)nccc2c1", "TARGET OF ASSAY": "Human Factor XIIa (Homo sapiens, UniProt P00748)", "pIC50": "4.40 to 5.00"}
{"COMPOUND": "C[C@H](NC(=O)[C@@H](CCc1ccccc1)NS(C)(=O)=O)C(=O)NCc1ccc2c(N)nccc2c1", "TARGET OF ASSAY": "Human Factor XIIa (Homo sapiens, UniProt P00748)", "pIC50": "6.00 to 6.55"}
{"COMPOUND": "CC(C)N[C@H](CCc1ccccc1)C(=O)N1CCC[C@H]1C(=O)NCc1cnc2[nH]cc(Cl)c2c1", "TARGET OF ASSAY": "Human Factor XIIa (Homo sapiens, UniProt P00748)", "pIC50": "6.00 to 6.55"}
{"COMPOUND": "CCC(C)[C@@H](N)C(=O)N[C@H](CC1CCCC2CCCCC21)C(=O)NCc1ccc(C(=N)N)s1 (some centres unmarked)", "TARGET OF ASSAY": "Human Factor XIIa (Homo sapiens, UniProt P00748)", "pIC50": "5.52 to 6.00"}
{"COMPOUND": "Cc1cc(C)c(C(=O)N[C@@H](Cc2ccc(F)c(F)c2)C(=O)NCc2ccc3c(N)nccc3c2)[nH]1", "TARGET OF ASSAY": "Human Factor XIIa (Homo sapiens, UniProt P00748)", "pIC50": "5.00 to 5.52"}
{"COMPOUND": "CC(C)c1ncncc1C(=O)N[C@@H](Cc1ccc(F)c(F)c1)C(=O)NCc1ccc2c(N)nccc2c1", "TARGET OF ASSAY": "Human Factor XIIa (Homo sapiens, UniProt P00748)", "pIC50": "4.40 to 5.00"}
{"COMPOUND": "Nc1nccc2cc(CNC(=O)[C@H](Cc3ccc(F)c(F)c3)NC(=O)c3nccc4ccccc34)ccc12", "TARGET OF ASSAY": "Human Factor XIIa (Homo sapiens, UniProt P00748)", "pIC50": "4.40 to 5.00"}
{"COMPOUND": "Nc1nccc2cc(CNC(=O)[C@H](Cc3ccc(F)c(F)c3)NC(=O)Cc3ccsc3)ccc12", "TARGET OF ASSAY": "Human Factor XIIa (Homo sapiens, UniProt P00748)", "pIC50": "4.40 to 5.00"}
{"COMPOUND": "C[C@H](NC(=O)[C@H]1Cc2ccccc2CN1)C(=O)NCc1ccc2c(N)nccc2c1", "TARGET OF ASSAY": "Human Factor XIIa (Homo sapiens, UniProt P00748)", "pIC50": "4.40 to 5.00"}
{"COMPOUND": "CC(C)N[C@H](CCCN1CCCCC1)C(=O)N1CC[C@H]1C(=O)NCc1ccc2c(N)nccc2c1", "TARGET OF ASSAY": "Human Factor XIIa (Homo sapiens, UniProt P00748)", "pIC50": "6.00 to 6.55"}
{"COMPOUND": "CC(C)c1cncc(C(=O)N[C@@H](Cc2ccc(F)c(F)c2)C(=O)NCc2ccc3c(N)nccc3c2)n1", "TARGET OF ASSAY": "Human Factor XIIa (Homo sapiens, UniProt P00748)", "pIC50": "4.40 to 5.00"}
{"COMPOUND": "CC(C)c1cc(C(=O)N[C@@H](Cc2ccc(F)c(F)c2)C(=O)NCc2ccc3c(N)nccc3c2)nc2ncnn12", "TARGET OF ASSAY": "Human Factor XIIa (Homo sapiens, UniProt P00748)", "pIC50": "6.00 to 6.55"}
{"COMPOUND": "CC(C)N[C@H](CCCCN1Cc2ccccc2C1)C(=O)N1CC[C@H]1C(=O)NCc1ccc2[nH]cc(Cl)c2c1", "TARGET OF ASSAY": "Human Factor XIIa (Homo sapiens, UniProt P00748)", "pIC50": "6.00 to 6.55"}
{"COMPOUND": "C[C@@H]1CCC[C@H](C)N1CC(=O)N1CCCC[C@H]1C(=O)NCc1ccc2c(N)nccc2c1", "TARGET OF ASSAY": "Human Factor XIIa (Homo sapiens, UniProt P00748)", "pIC50": "5.52 to 6.00"}
{"COMPOUND": "CC(C)N[C@H](CCc1ccccc1)C(=O)N(C)[C@@H](C)C(=O)NCc1ccc2c(N)nccc2c1", "TARGET OF ASSAY": "Human Factor XIIa (Homo sapiens, UniProt P00748)", "pIC50": "6.00 to 6.55"}
{"COMPOUND": "C[C@@H]1CCC[C@H](C)N1CC(=O)N1C[C@H]2[C@@H]([C@H]1C(=O)NCc1ccc3c(N)nccc3c1)C2(C)C", "TARGET OF ASSAY": "Human Factor XIIa (Homo sapiens, UniProt P00748)", "pIC50": "4.40 to 5.00"}
{"COMPOUND": "CCCc1cc(C(=O)N[C@@H](Cc2ccc(F)c(F)c2)C(=O)NCc2ccc3c(N)nccc3c2)nn1C", "TARGET OF ASSAY": "Human Factor XIIa (Homo sapiens, UniProt P00748)", "pIC50": "5.00 to 5.52"}
{"COMPOUND": "CC(C)N[C@H](CCc1ccccc1)C(=O)N1CC[C@H]1C(=O)NCc1ccc2c(N)nccc2c1", "TARGET OF ASSAY": "Human Factor XIIa (Homo sapiens, UniProt P00748)", "pIC50": "6.55 to 7.00"}
{"COMPOUND": "Nc1nccc2cc(CNC(=O)[C@H](Cc3ccc(F)c(F)c3)NC(=O)COc3cccnc3)ccc12", "TARGET OF ASSAY": "Human Factor XIIa (Homo sapiens, UniProt P00748)", "pIC50": "4.40 to 5.00"}
{"COMPOUND": "CC[C@H](NC(=O)CN1[C@H](C)CCC[C@@H]1C)C(=O)NCc1ccc2c(N)nccc2c1", "TARGET OF ASSAY": "Human Factor XIIa (Homo sapiens, UniProt P00748)", "pIC50": "5.00 to 5.52"}
{"COMPOUND": "Nc1nccc2cc(CNC(=O)[C@H](Cc3ccc(F)c(F)c3)NC(=O)c3ccc(Cn4cnnn4)cc3)ccc12", "TARGET OF ASSAY": "Human Factor XIIa (Homo sapiens, UniProt P00748)", "pIC50": "5.52 to 6.00"}
{"COMPOUND": "CC1CCCC(C)N1CC(=O)N[C@@H](Cc1ccccc1Cl)C(=O)NCc1ccc2c(N)nccc2c1 (some centres unmarked)", "TARGET OF ASSAY": "Human Factor XIIa (Homo sapiens, UniProt P00748)", "pIC50": "5.52 to 6.00"}
{"COMPOUND": "C[C@H](NC(=O)[C@H](N)CCc1ccncc1)C(=O)NCc1ccc2c(N)nccc2c1", "TARGET OF ASSAY": "Human Factor XIIa (Homo sapiens, UniProt P00748)", "pIC50": "5.00 to 5.52"}
